Recorded measurements of Inhibition level, TOPK, one per entry
Target: plurality of kinases (Table 5) (Homo sapiens, UniProt Q96KB5)
Sequence (Q96KB5 whole entry): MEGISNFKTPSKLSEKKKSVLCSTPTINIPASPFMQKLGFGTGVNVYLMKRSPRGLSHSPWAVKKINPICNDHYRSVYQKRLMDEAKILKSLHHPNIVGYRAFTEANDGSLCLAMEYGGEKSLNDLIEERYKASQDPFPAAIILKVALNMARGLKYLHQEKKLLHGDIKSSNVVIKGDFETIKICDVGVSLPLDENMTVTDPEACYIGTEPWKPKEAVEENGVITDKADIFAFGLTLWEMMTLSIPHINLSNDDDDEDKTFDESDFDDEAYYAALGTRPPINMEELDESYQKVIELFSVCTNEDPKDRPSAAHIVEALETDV
Assay: Further analysis of a plurality of inhibitors and a plurality of kinases on microarray (Example IX, Table 5)
Format: biochemical
Details: plate G7; inhibitor 100 uM
Lab note: jot down the number only; don't add units.

// below: answered molecules
Test Smiles	Inhibition level, TOPK
O=c1c(O)c(-c2ccc(O)c(O)c2)oc2cc(O)cc(O)c12	0
CC(=O)c1c(O)c(C)c(O)c(Cc2c(O)c3c(c(C(=O)/C=C/c4ccccc4)c2O)OC(C)(C)C=C3)c1O	2
Cn1cc(C2=C(c3cn(CCCSC(=N)N)c4ccccc34)C(=O)NC2=O)c2ccccc21	0
O=S(=O)(NCCNC/C=C/c1ccc(Br)cc1)c1cccc2cnccc12	2
COc1cc2ncnc(Nc3cccc(Cl)c3)c2cc1OC	1
N#C/C(=C/c1ccc(O)c(O)c1)C(=O)NCc1ccccc1	2
CC(C)(C)n1nc(-c2ccc(Cl)cc2)c2c(N)ncnc21	2

# input for lookup
// query Entry O=c1c(-c2ccc(O)cc2)coc2cc(O)cc(O)c12 has what Inhibition level, TOPK?
// result 2

* * *

Let's look at some molecules and their measured Inhibition level, DAPK2.
Target: plurality of kinases (Table 5) (Homo sapiens, UniProt Q9UIK4)
Sequence (Q9UIK4 whole entry): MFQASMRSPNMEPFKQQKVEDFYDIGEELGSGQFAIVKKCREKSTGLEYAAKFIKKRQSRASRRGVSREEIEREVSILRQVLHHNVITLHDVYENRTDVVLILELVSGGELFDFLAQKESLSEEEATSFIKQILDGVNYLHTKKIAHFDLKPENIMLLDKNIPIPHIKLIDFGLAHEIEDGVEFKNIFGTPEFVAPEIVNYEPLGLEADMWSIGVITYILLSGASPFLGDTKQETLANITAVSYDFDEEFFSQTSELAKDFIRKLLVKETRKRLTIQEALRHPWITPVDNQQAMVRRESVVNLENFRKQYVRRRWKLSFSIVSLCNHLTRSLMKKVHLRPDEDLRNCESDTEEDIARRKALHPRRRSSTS
Experiment: Further analysis of a plurality of inhibitors and a plurality of kinases on microarray (Example IX, Table 5);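 for Inhibition level, DAPK2: level 0 no or unclear inhibition to Level 2 substantial inhibition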
Type: biochemical
Conditions: plate H3; inhibitor 100 uM
# print the numeric value only

Recorded Inhibition level, DAPK2, per entry:
Test Smiles	Observed Value
CC(=O)c1c(O)c(C)c(O)c(Cc2c(O)c3c(c(C(=O)/C=C/c4ccccc4)c2O)OC(C)(C)C=C3)c1O	1
Cn1cc(C2=C(c3cn(CCCSC(=N)N)c4ccccc34)C(=O)NC2=O)c2ccccc21	2
N#C/C(=C/c1ccc(O)c(O)c1)C(=O)NCc1ccccc1	2

We next turn to a different molecule, shown below.
// query Item under review: CC(C)(C)n1nc(-c2ccc(Cl)cc2)c2c(N)ncnc21 . Reported Inhibition level, DAPK2?
// result 2

* * *

Molecular target: plurality of kinases (Table 5) (Homo sapiens)
Assay: Further analysis of a plurality of inhibitors and a plurality of kinases on microarray (Example IX, Table 5);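 for Inhibition level, LOC57118: level 0 none or unclear then 1 little or marginal then 2 substantial inhibition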
Format: biochemical
Settings: plate D2; inhibitor 100 uM
The compounds listed here are annotated with their Inhibition level, LOC57118.
Respond with the number and no other words.

A selection of reference data follows.
Test Smiles	Inhibition level, LOC57118
O=S(=O)(NCCNC/C=C/c1ccc(Br)cc1)c1cccc2cnccc12	1
Cn1cc(C2=C(c3cn(CCCSC(=N)N)c4ccccc34)C(=O)NC2=O)c2ccccc21	0

Here's the next entry for you.
// query Param item = COc1cc2ncnc(Nc3cccc(Cl)c3)c2cc1OC ; retrieve measured Inhibition level, LOC57118.
// result 0

* * *

Entries and their Inhibition level, CDKL3 values follow.
Target: UniProt:Q8IVW4
Sequence (Q8IVW4 whole entry): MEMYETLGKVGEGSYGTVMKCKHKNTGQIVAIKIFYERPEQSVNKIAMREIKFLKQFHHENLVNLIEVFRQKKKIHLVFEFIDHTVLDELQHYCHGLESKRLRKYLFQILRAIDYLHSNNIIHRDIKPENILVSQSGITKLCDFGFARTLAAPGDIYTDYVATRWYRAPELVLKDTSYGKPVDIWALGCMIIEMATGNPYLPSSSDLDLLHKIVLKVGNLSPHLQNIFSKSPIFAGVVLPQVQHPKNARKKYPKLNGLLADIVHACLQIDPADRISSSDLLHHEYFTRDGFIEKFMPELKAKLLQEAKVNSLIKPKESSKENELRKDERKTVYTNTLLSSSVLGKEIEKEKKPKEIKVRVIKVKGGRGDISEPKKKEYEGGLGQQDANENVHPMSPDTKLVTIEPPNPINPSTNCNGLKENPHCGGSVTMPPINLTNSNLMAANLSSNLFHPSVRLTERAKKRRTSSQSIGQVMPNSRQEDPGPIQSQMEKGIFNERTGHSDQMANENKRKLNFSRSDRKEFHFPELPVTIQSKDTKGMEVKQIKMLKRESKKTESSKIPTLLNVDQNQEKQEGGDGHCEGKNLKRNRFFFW
Test: Further analysis of a plurality of inhibitors and a plurality of kinases on microarray (Example IX, Table 5);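 note: inhibition of each kinase by the inhibitors is given as a qualitative level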;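 for Inhibition level, CDKL3: level 0 no or unclear inhibition to Level 2 substantial inhibition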
Type: biochemical
Settings: plate F12; inhibitor 100 uM
The response must contain the number and no unit.

Compound	Inhibition level, CDKL3
COc1cc2ncnc(Nc3cccc(Cl)c3)c2cc1OC [AG 1478]	1
CC(C)(C)n1nc(-c2ccc(Cl)cc2)c2c(N)ncnc21 [PP2]	2
CC(=O)c1c(O)c(C)c(O)c(Cc2c(O)c3c(c(C(=O)/C=C/c4ccccc4)c2O)OC(C)(C)C=C3)c1O [Rottlerin (Mallotoxin)]	1
O=S(=O)(NCCNC/C=C/c1ccc(Br)cc1)c1cccc2cnccc12 [H-89]	1
Cn1cc(C2=C(c3cn(CCCSC(=N)N)c4ccccc34)C(=O)NC2=O)c2ccccc21 [Ro-31-8220]	2
O=c1c(-c2ccc(O)cc2)coc2cc(O)cc(O)c12 [Genistein]	0

// query // lookup Inhibition level, CDKL3 | system=UniProt:Q8IVW4 | key= O=c1c(O)c(-c2ccc(O)c(O)c2)oc2cc(O)cc(O)c12 [Quercetin]
// result 0

// query Checklist item: Inhibition level, CDKL3 tested on UniProt:Q8IVW4, entry N#C/C(=C/c1ccc(O)c(O)c1)C(=O)NCc1ccccc1 [AG 490] , value?
// result 2
